System: MOLT-4 leukemia
PROTOCOL DESCRIPTION: NCI tumour cell line growth inhibition, 48 h
Assignment: determine reported TGI for the given compounds.

C[C@]12CC[C@@H]3c4ccc(Oc5nc(N6CC6)nc(N6CC6)n5)cc4CC[C@H]3[C@@H]1CCC2=O    4.97 µM
CNC(=O)N1CCN(C(=O)NC)CCN(C(=O)NC)CC1    > 100 µM
CC(C(=O)N1c2ccccc2Sc2ccccc21)N1c2ccccc2Sc2ccccc21 (stereo not given)    > 100 µM
S=C1Cc2c([nH]c3ccccc23)-c2ccccc2N1    > 100 µM

Record TGI for all entries; do not skip any.
1. Cc1ccc2nc3ccccc3c(C3C4C(=O)N(c5ccc(Br)cc5Cl)C(=O)C4ON3C(C(N)=O)c3ccccc3)c2c1 (stereo not given)
2. CCSc1nc(N2CCOCC2)c2cn[nH]c2n1

> 25 µM
> 100 µM

Record TGI for all entries; do not skip any.
1. O=[N+]([O-])C(C(Cl)=C(Cl)Cl)=C(N1CCOCC1)N1CCOCC1
2. CC(=O)c1cccc2c1CC1(C2)Cc2ccc3c(c2C1=O)CCC3 (stereo not given)
3. Cc1cc(O)c(/C=N/C(=S)NCCc2ccccc2)c(=O)o1
4. CCN(CC)C(=O)C/C(C)=N/NC(=O)c1ccncc1

> 100 µM
> 100 µM
> 100 µM
> 100 µM
